Assay: qHTS for Inhibitors of the Functional Ribonucleoprotein Complex (vRNP) of Lymphocytic Choriomeningitis Arenaviruses (LCMV): Viability assay - alamar blue signal for LCMV Primary Screen (AID 1347085); also: nearly all actives have a fitted effect of over 80% in size
Settings: alamar blue viability counter-screen, LCMV vRNP screen cells; series mostly up to 57.5 µM
Inconclusive results are not listed. The source made the active and inactive calls. Calls follow the shape of the full dose curve; tested in HEK293 reporter line.
// one of active, inactive, no free text

Outcome logged for O=c1[nH]c(=O)n([C@H]2C[C@H](O)[C@@H](CO)O2)cc1C(F)(F)F in this assay:
active

Outcome logged for COc1ccc2[nH]c(S(=O)Cc3ncc(C)c(OC)c3C)nc2n1 (configuration not stated) in this assay:
inactive

Outcome logged for CCCCc1cc2ccccc2c(OCCN(C)C)n1 in this assay:
inactive

Outcome logged for Sc1ccccc1Cl in this assay:
inactive

Outcome logged for COP(=O)(OC)C(O)C(Cl)(Cl)Cl (configuration not stated) in this assay:
inactive

Outcome logged for C/C=C/c1ccc(OC)cc1 in this assay:
inactive

Outcome logged for Cc1cccc(CN2CCN(C(c3ccccc3)c3ccc(Cl)cc3)CC2)c1 (configuration not stated) in this assay:
inactive

Outcome logged for CN(C)CC[C@@H](c1ccc(Cl)cc1)c1ccccn1 in this assay:
inactive

Outcome logged for O=C(NC1CCN(CCc2c[nH]c3ccccc23)CC1)c1ccccc1 in this assay:
inactive

Outcome logged for O=C1CC2(CCCC2)CC(=O)N1CCNCC1COc2ccccc2O1 (configuration not stated) in this assay:
inactive

Outcome logged for CCOC(=O)Nc1ccc(NCc2ccc(F)cc2)nc1N in this assay:
inactive

Outcome logged for CC1=C(C)C(=O)C(C(CCCCCC(=O)O)c2ccccc2)=C(C)C1=O (configuration not stated) in this assay:
inactive

###

Test system: CP256
Assay: qHTS profiling for inhibitors of Plasmodium falciparum proliferation (AID 504749); also: nearly all actives have a fitted effect of over 60% in size
Conditions: P. falciparum in erythrocytes, SYBR Green DNA, 72 h; series mostly up to 28.7 µM
Results filed as inconclusive are left out. Active and inactive are the calls of the source. Calls follow the shape of the dose curve; as a rule, active = well fitted inhibition curve with a large enough effect; inconclusive = small, poorly fitted or top-dose-only effect; inactive = flat fitted curve, though single readings scatter.
// one of active, inactive, no free text

Outcome logged for COP(=S)(OC)Oc1ccc(Sc2ccc(OP(=S)(OC)OC)cc2)cc1 in this assay:
inactive

Outcome logged for NC(=O)CN1CCCC1=O in this assay:
inactive

Outcome logged for CCS(=O)(=O)C(C)(C)S(=O)(=O)CC in this assay:
inactive

Outcome logged for CC(C)(C)OC(=O)c1ncn2c1[C@@H]1CCCN1C(=O)c1c(Br)cccc1-2 in this assay:
inactive

Outcome logged for C[C@]12Cc3nonc3C[C@@H]1CC[C@@H]1[C@@H]2CC[C@@]2(C)[C@H]1CC[C@]2(C)O in this assay:
inactive

Outcome logged for CC(C)(O)C(Cl)(Cl)Cl in this assay:
active

Outcome logged for C[N+](C)(C)CCOC(=O)C(O)(c1ccccc1)c1ccccc1 in this assay:
inactive

Outcome logged for Cc1ncc2n1-c1ccc(Cl)cc1C(c1ccccc1F)=NC2 in this assay:
inactive

Outcome logged for O=C1NCN(c2ccccc2)C12CCN(CCCOc1ccc(F)cc1)CC2 in this assay:
inactive

Outcome logged for Oc1c(Br)cc(Br)cc1Br in this assay:
inactive

Outcome logged for C[N+]1(CCC(C(N)=O)(c2ccccc2)c2ccccc2)CCCCC1 in this assay:
inactive

Outcome logged for OC(c1ccccc1)(c1ccccc1)C1CCNCC1 in this assay:
inactive

###

Give max response for every item shown.
Assay: qHTS assay for cell viability of HEK293 cells (AID 743288); also: % is scaled to controls: 0 for no effect and ±100 for the full control effect; nearly all actives have a fitted effect of over 50% in size
Details: ATP luminescence (CellTiter-Glo), 18 h; stronger effect = lower value
Inconclusive results are not listed. Calls of active or inactive are those of the source. Calls follow the shape of the dose curve; as a rule, active = well fitted cell-killing curve with a large enough effect; inconclusive = small, poorly fitted or top-dose-only effect, or effect the other way; inactive = flat fitted curve, though single readings scatter.

Entry Cc1ccc(N=CN(C)C=Nc2ccc(C)cc2C)c(C)c1 — recorded max response = -16.1% (inactive)

Entry COCC(=O)N(c1c(C)cccc1C)C(C)C(=O)OC (stereo not drawn) — recorded max response = -7.89% (inactive)

Entry COP(=O)(OC)C(O)C(Cl)(Cl)Cl (stereo not drawn) — recorded max response = -19.1% (inactive)

Entry CCOP(=S)(OCC)O/N=C(\C#N)c1ccccc1 — recorded max response = -1.29% (inactive)

Entry O=c1n(Cl)c(=O)n(Cl)c(=O)n1Cl — recorded max response = 2.76% (inactive)

Entry COP(=O)(OC)OC=C(Cl)Cl — recorded max response = -9.07% (inactive) [middle of 4 runs]

Entry O=C(NC(=O)c1c(F)cccc1F)Nc1cc(Cl)c(OC(F)(F)C(F)C(F)(F)F)cc1Cl (stereo not drawn) — recorded max response = -27.8% (inactive)

Entry CCCCCCCCC(=O)NCc1ccc(O)c(OC)c1 — recorded max response = -11.8% (inactive)
